- protocolDescription: ATG_TGFb_CIS: Attagene CIS-FACTORIAL HepG2 Assay for human Transforming Growth Factor (TGF) (AID 2282967)
- testConditions: HepG2 Attagene CIS TGFb reporter, mRNA transcription; actives raise or lower the signal
Active and inactive are the calls of the source. Rule for the calls: active = hit-call score of the fitted dose curve at least 0.9, where 1 is the maximum; inactive = score below 0.9.
Can you answer with just one of these options? label 1 for active, label 0 for inactive

# count of solved cases: 2
| smi | label |
| --- | --- |
| C[C@H]1CCCC(=O)CCC/C=C/c2cc(O)cc(O)c2C(=O)O1 | label 0 |
| C(=NC1CCCCC1)=NC1CCCCC1 | label 0 |

Qu. Name the outcome recorded for `C=CC(=O)N(C)C` in the assay.
Ans. label 0

Qu. Name the outcome recorded for `CC(C)(C)c1cc(O)ccc1O` in the assay.
Ans. label 0

Qu. Name the outcome recorded for `Cc1ccccc1C(=O)Nc1cccc(OC(C)C)c1` in the assay.
Ans. label 0

Qu. Name the outcome recorded for `ClCc1ccccn1` in the assay.
Ans. label 0

Qu. Name the outcome recorded for `CCOC(=O)Nc1cccc(OC(=O)Nc2ccccc2)c1` in the assay.
Ans. label 0

----------
- protocolDescription: BSK_BT_PBMCCytotoxicity: PBMC Cytotoxicity Assessment in the BioMAP Diversity Plus: BT Assay (AID 2284225);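 note: PBMC viability measured by Alamar Blue dye reduction fluorescence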
- testConditions: primary human B cells with PBMC
Active and inactive are the calls of the source. How the source made its calls: active means hit-call score of the fitted dose curve at least 0.9, where 1 is the maximum; inactive means score below 0.9.
Can you answer with just one of these options? active, inactive

| compound | label |
| --- | --- |
| NC(=S)Nc1ccccc1 | inactive |

Qu. Name the outcome recorded for `BrCCBr` in the assay.
Ans. inactive

Qu. Name the outcome recorded for `Oc1c(I)cc(I)cc1I` in the assay.
Ans. inactive

Qu. Name the outcome recorded for CCOP(=S)(OCC)Oc1ccc(S(C)=O)cc1 (stereo not given) in the assay.
Ans. inactive

Qu. Name the outcome recorded for `Nc1cccc2ccccc12` in the assay.
Ans. inactive

Qu. Name the outcome recorded for CC(=O)C(Cl)C(=O)N(C)C (stereo not given) in the assay.
Ans. active

Qu. Name the outcome recorded for `CCOC(=O)/C=C(C)/C=C/C[C@@H](C)CCCC(C)C` in the assay.
Ans. active

Qu. Name the outcome recorded for `Nc1ncc([N+](=O)[O-])s1` in the assay.
Ans. inactive

Qu. Name the outcome recorded for CCCCC(CC)CO[N+](=O)[O-] (stereo not given) in the assay.
Ans. inactive

Qu. Name the outcome recorded for `CCOP(=S)(OCC)SCCS(=O)(=O)CC` in the assay.
Ans. inactive

----------
- measuredOn: Nucleoli Translocation, AR (gene 367) (UniProt P10275)
- Sequence (P10275 whole entry, looked up): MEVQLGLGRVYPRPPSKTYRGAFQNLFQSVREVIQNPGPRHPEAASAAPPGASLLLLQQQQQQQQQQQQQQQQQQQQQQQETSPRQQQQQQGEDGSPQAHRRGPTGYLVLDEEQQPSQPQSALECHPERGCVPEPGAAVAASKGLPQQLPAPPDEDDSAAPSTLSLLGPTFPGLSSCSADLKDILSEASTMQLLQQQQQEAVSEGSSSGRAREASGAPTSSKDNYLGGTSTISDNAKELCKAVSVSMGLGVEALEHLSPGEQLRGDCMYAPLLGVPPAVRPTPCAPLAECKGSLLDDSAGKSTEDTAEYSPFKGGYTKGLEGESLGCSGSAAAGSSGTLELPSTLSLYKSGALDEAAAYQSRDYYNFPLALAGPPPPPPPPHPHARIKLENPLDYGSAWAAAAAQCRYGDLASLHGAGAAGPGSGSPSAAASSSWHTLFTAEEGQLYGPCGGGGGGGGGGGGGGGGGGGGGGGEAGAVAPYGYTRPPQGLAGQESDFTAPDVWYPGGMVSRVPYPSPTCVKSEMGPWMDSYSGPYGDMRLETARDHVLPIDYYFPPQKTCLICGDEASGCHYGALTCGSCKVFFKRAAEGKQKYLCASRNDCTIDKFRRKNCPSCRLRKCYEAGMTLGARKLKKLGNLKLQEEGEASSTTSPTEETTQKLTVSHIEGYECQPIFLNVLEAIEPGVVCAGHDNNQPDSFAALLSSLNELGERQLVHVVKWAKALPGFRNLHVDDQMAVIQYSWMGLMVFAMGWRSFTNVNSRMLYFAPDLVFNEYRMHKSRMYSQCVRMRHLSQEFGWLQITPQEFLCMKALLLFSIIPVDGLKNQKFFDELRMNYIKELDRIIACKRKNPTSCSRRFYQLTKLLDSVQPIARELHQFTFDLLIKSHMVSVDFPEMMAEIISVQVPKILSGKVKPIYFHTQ
- protocolDescription: UPITT_HCI_U2OS_AR_TIF2_Nucleoli_Antagonist: University of Pittsburgh U2OS Androgen Receptor-Transcriptional Intermediary Factor 2 (AR-TIF2) Antagonism High Content Imaging Assay for Nucleoli Translocation (AID 2283997)
Records with an inconclusive call do not appear. Activity calls are given as the source filed them. The calls were made as follows: active = hit-call score of the fitted dose curve at least 0.9, where 1 is the maximum; inconclusive = response in the unintended direction; inactive = score below 0.9.
Can you answer with just one of these options? T for active, F for inactive

# count of solved cases: 2
| compound | label |
| --- | --- |
| COP(=O)(OC)OC | F |
| COP(=O)(OC)O/C(=C\Cl)c1cc(Cl)c(Cl)cc1Cl | T |

Turning now to a further compound:
Qu. Name the outcome recorded for CCSC(C)CC1CC(=O)C(C(CC)=NOC/C=C/Cl)=C(O)C1 (stereo not drawn) in the assay.
Ans. F

----------
- Read-out: Interferon-gamma inducible Protein 10 (IP10), CXCL10 (gene 3627)
- protocolDescription: BSK_KF3CT_IP10: BioMAP Diversity Plus: KF3CT Assay for Interferon-gamma inducible Protein 10 (IP10) Biomarker Activity (AID 2283068)
- testConditions: primary human keratinocytes with fibroblasts; actives raise or lower the signal
The source made the active and inactive calls. The calls were made as follows: active = hit-call score of the fitted dose curve at least 0.9, where 1 is the maximum; inactive = score below 0.9.
Can you answer with just one of these options? active, inactive

# count of solved cases: 4
| compound | label |
| --- | --- |
| C=CC(=O)OCCCCCC(C)C | inactive |
| CC(C)(C)c1cc(O)ccc1O | active |
| COc1cc(OC)nc(NC(=O)NS(=O)(=O)c2ncccc2C(=O)N(C)C)n1 | inactive |
| CC(=O)OC(c1ccccc1)C(Cl)(Cl)Cl (stereo not given) | inactive |

Qu. Name the outcome recorded for `CC(C)c1ccc(CO)cc1` in the assay.
Ans. inactive

Qu. Name the outcome recorded for `O=C(Nc1ccc2[nH]ccc2c1)c1cc2cc(F)ccc2n1Cc1cccc(F)c1` in the assay.
Ans. active

Qu. Name the outcome recorded for `ClC(Cl)=C(Cl)C(Cl)=C(Cl)Cl` in the assay.
Ans. active

Qu. Name the outcome recorded for `COP(=S)(OC)Oc1ccc(S(=O)(=O)N(C)C)cc1` in the assay.
Ans. inactive

Qu. Name the outcome recorded for `O=c1[nH]c(=O)[nH]c(=O)[nH]1` in the assay.
Ans. inactive

Qu. Name the outcome recorded for `O=Cc1cccc(Oc2ccccc2)c1` in the assay.
Ans. inactive

Qu. Name the outcome recorded for `CC(C)(C)CC(C)(C)c1ccc(O)cc1` in the assay.
Ans. active

Qu. Name the outcome recorded for ClC1(Cl)C2(Cl)C3(Cl)C4(Cl)C(Cl)(Cl)C5(Cl)C3(Cl)C1(Cl)C5(Cl)C24Cl (stereo not given) in the assay.
Ans. inactive

Qu. Name the outcome recorded for `Cc1ccccc1N` in the assay.
Ans. inactive

Qu. Name the outcome recorded for `O=[N+]([O-])c1ccc(O)c([N+](=O)[O-])c1` in the assay.
Ans. inactive

Qu. Name the outcome recorded for `CCOP(=S)(OCC)SCCS(=O)(=O)CC` in the assay.
Ans. inactive

----------
- protocolDescription: BSK_SAg_SRB: Viability Assessment in the BioMAP Diversity Plus: SAg Assay (AID 2283096);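 note: cells read one day after compound addition; hits may be either gain or loss of signal compared with DMSO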
- testConditions: primary human HUVEC with PBMC
Calls of active or inactive are those of the source. The calls were made as follows: active = hit-call score of the fitted dose curve at least 0.9, where 1 is the maximum; inactive = score below 0.9.
Can you answer with just one of these options? yes (1) for active, no (0) for inactive

| compound | label |
| --- | --- |
| CC(=O)OC(c1ccccc1)C(Cl)(Cl)Cl (centres undefined) | no (0) |

Qu. Name the outcome recorded for `Oc1cccc2cccnc12` in the assay.
Ans. no (0)

Qu. Name the outcome recorded for `COP(=S)(OC)Oc1ccc(Sc2ccc(OP(=S)(OC)OC)cc2)cc1` in the assay.
Ans. no (0)

Qu. Name the outcome recorded for `C=CC(=O)OCCCCCC(C)C` in the assay.
Ans. no (0)

Qu. Name the outcome recorded for `O=C(O)C(Cl)(Cl)Cl` in the assay.
Ans. no (0)

Qu. Name the outcome recorded for `CC1(C)Cc2cccc(O)c2O1` in the assay.
Ans. no (0)

Qu. Name the outcome recorded for `COc1cc(-c2ccc(N)c(OC)c2)ccc1N` in the assay.
Ans. no (0)

Qu. Name the outcome recorded for `CC(C)(C)c1cc(O)ccc1O` in the assay.
Ans. yes (1)

Qu. Name the outcome recorded for `CC(C)c1ccc(CO)cc1` in the assay.
Ans. no (0)

----------
- Read-out: urokinase plasminogen activator (uPA), PLAU (gene 5328)
- protocolDescription: BSK_BE3C_uPA: BioMAP Diversity Plus: BE3C Assay for urokinase plasminogen activator (uPA) Biomarker Activity (AID 2283038)
- testConditions: primary human bronchial epithelial cells; actives raise or lower the signal
Activity calls are given as the source filed them. The calls were made as follows: active = hit-call score of the fitted dose curve at least 0.9, where 1 is the maximum; inactive = score below 0.9.
Can you answer with just one of these options? active, inactive

# count of solved cases: 8
| compound | label |
| --- | --- |
| CCOP(=S)(OCC)Oc1ccc(S(C)=O)cc1 (stereo unspecified) | inactive |
| CC(C)c1ccc(CO)cc1 | inactive |
| CC(C)(c1ccccc1)c1ccc(O)c(C(C)(C)c2ccccc2)c1 | active |
| CC(C)(C)c1cc(O)ccc1O | inactive |
| ClC1(Cl)C2(Cl)C3(Cl)C4(Cl)C(Cl)(Cl)C5(Cl)C3(Cl)C1(Cl)C5(Cl)C24Cl (stereo unspecified) | inactive |
| O=S(=O)(c1ccc(Cl)cc1)c1ccc(Cl)cc1 | inactive |
| Nc1ccc(-c2ccc(N)c(Cl)c2)cc1Cl | inactive |
| ClCC(Cl)CCl | inactive |

Qu. Name the outcome recorded for `CC1(C)Cc2cccc(O)c2O1` in the assay.
Ans. inactive

Qu. Name the outcome recorded for `O=c1[nH]c(=O)[nH]c(=O)[nH]1` in the assay.
Ans. inactive

Qu. Name the outcome recorded for `CCNc1nc(NC(C)(C)C)nc(SC)n1` in the assay.
Ans. inactive

Qu. Name the outcome recorded for `O=C(O)C(Cl)(Cl)Cl` in the assay.
Ans. inactive

----------
- protocolDescription: BSK_SAg_PBMCCytotoxicity: PBMC Cytotoxicity Assessment in the BioMAP Diversity Plus: SAg Assay (AID 2283093);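 note: PBMC viability measured as Alamar Blue reduction fluorescence at 546/580 nm; fitted both ways against DMSO so a hit may be loss or gain of signal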
- testConditions: primary human HUVEC with PBMC
Active and inactive are the calls of the source. The calls were made as follows: active = hit-call score of the fitted dose curve at least 0.9, where 1 is the maximum; inactive = score below 0.9.
Can you answer with just one of these options? true (active), false (inactive)

# count of solved cases: 2
| smi | label |
| --- | --- |
| Nc1ncc([N+](=O)[O-])s1 | false |
| ClCC(Cl)CCl | false |

Qu. Name the outcome recorded for `C[C@]12CCC(=O)C[C@@H]1CC[C@@H]1[C@@H]2CC[C@]2(C)[C@@H](O)CC[C@@H]12` in the assay.
Ans. false

Qu. Name the outcome recorded for `CC(C)(c1ccccc1)c1ccc(O)c(C(C)(C)c2ccccc2)c1` in the assay.
Ans. true
